- targetUnderTest: HLA-DRB1*01:01 (Homo sapiens, UniProt P01903+P01911, A100R/D57E/F55L/F60I/F76Y/I96L/L162R/M171V/P40L/Q125E/R42F/V115G/Y59C)
- Construct: EBV transformed homozygous cell lines were used as sources of MHC molecules; endogenous in cells; host or cells: EBV transformed homozygous cell lines
- measurementProtocol: HLA class II peptide binding, inhibition of radiolabeled peptide binding to purified MHC
- conditionDetails: read-out: DRB1*01:01 binding capacity, WT peptide (IC50 nM)
Ends that are not written are not given here.
Label key: met means IC50 under 5000 nM; not met means IC50 of 5000 nM or more.

Here's what some known entries look like.
INSERT INTO assay_data (inputsequence, discretelabel) VALUES
  ('ADLSEAANRNNDALR [Vimentin 296 WT]', 'met'),
  ('NTLQSFRQDVDNASL [Vimentin 201 WT]', 'met');

[Q] Quick check: does TVETRDGQVINETSQ [Vimentin 446 WT] have IC50 under 5000 nM?
[A] not met

[Q] Quick check: does YRRMFGGPGTASRPS [Vimentin 11 WT] have IC50 under 5000 nM?
[A] met

[Q] Quick check: does FRQDVDNASLARLDL [Vimentin 206 WT] have IC50 under 5000 nM?
[A] not met

[Q] Quick check: does REEAENTLQSFRQDV [Vimentin 196 WT] have IC50 under 5000 nM?
[A] not met
